# target_entity: SMYD3 (Homo sapiens (Human), UniProt Q9H7B4)
# Sequence (Q9H7B4 whole entry): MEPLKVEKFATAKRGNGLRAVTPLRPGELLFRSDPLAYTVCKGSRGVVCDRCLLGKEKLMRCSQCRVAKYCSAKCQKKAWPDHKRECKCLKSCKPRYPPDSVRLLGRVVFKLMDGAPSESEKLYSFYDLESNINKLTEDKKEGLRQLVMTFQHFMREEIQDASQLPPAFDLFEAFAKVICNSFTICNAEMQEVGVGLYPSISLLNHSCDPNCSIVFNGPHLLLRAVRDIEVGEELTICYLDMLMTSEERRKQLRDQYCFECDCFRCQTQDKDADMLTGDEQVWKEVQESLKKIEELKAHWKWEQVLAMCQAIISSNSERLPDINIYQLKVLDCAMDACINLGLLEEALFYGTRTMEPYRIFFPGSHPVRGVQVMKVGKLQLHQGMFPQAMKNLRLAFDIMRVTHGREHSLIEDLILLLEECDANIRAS
# assay_info: SMYD3 cell assay (Trimethyl-MEKK2 In-Cell Western in 293T/17 cells)
# Type: cell-based
# setup_conditions: 293T/17 cells; read-out: SMYD3 Cell IC50 (μM)*
Structures can show the parent of a compound that is named as a salt.
parameter_measured: log10 IC50 (log10 of the value in µM)
Plainly stated, the numbers are log10 of IC50 given in µM.

Look over these answered cases.
{"molecule": "C[C@H]1C[C@@H](NC(=O)c2cc(C3CC3)on2)CCN1S(=O)(=O)c1ccccc1", "parameter_measured": "log10 IC50", "reported_measurement": 0.00}
{"molecule": "C[C@H]1C[C@@H](NC(=O)c2cc(C3CC3)on2)CCN1C(=O)C1CCCC(CN)C1 (stereo partly drawn)", "parameter_measured": "log10 IC50", "reported_measurement": 1.47}
{"molecule": "CNc1ccc(S(=O)(=O)N2CC[C@H](NC(=O)c3cc(C4CC4)on3)C[C@@H]2C)cn1", "parameter_measured": "log10 IC50", "reported_measurement": 0.35}
{"molecule": "C[C@H]1C[C@@H](NC(=O)c2cc(C3CC3)on2)CCN1S(=O)(=O)Cc1cccnc1", "parameter_measured": "log10 IC50", "reported_measurement": 0.66}
{"molecule": "C[C@@H]1C[C@H](NC(=O)c2cc(C3CC3)on2)CCN1S(=O)(=O)N(C)C", "parameter_measured": "log10 IC50", "reported_measurement": 1.18}

IN: Please report the recorded log10 IC50 for O=C(N[C@H]1CCN(C(=O)CC2CCNCC2)[C@@H](Cc2ccccc2)C1)c1cc(C2CC2)on1 [Cpd. No. 348, hydrochloride] .
OUT: -0.08

IN: Please report the recorded log10 IC50 for C[C@H]1C[C@@H](NC(=O)c2cc(C3CC3)on2)CCN1S(=O)(=O)N(C)C .
OUT: 0.68

IN: Please report the recorded log10 IC50 for CC(=O)Nc1ccc(S(=O)(=O)N2[C@@H]3CC[C@H]2C[C@H](NC(=O)c2cc(C4CC4)on2)C3)cc1 .
OUT: 0.66

IN: Please report the recorded log10 IC50 for C[C@H]1C[C@H](NC(=O)c2cc(C3CC3)on2)CCN1S(=O)(=O)c1ccccn1 .
OUT: 1.03

IN: Please report the recorded log10 IC50 for NCCCS(=O)(=O)N1CC[C@@H](NC(=O)c2cc(C3CC3)on2)C[C@H]1Cc1ccccc1 .
OUT: 0.47

====

Overview of reported pIC50 across a group of compounds:
# target_entity: SMYD3 (Homo sapiens (Human))
# assay_info: SMYD3 cell assay (Trimethyl-MEKK2 In-Cell Western in 293T/17 cells)
# Format: cell-based
# setup_conditions: read-out: SMYD3 Cell IC50*
The value called pIC50 is obtained by taking minus log10 of the concentration in mol/L.

Look over these answered cases.
{"compound_smiles": "COCCN(C)C1CCN(S(=O)(=O)N2[C@@H]3CC[C@H]2C[C@@H](NC(=O)c2cc(C4CC4)on2)C3)CC1", "pIC50": 6.61}
{"compound_smiles": "CCCc1cc(C(=O)N[C@H]2C[C@H]3CC[C@@H](C2)N3S(=O)(=O)CC2CCN(C)CC2)no1", "pIC50": 5.88}
{"compound_smiles": "C[C@@H](NC1CCN(S(=O)(=O)N2CC[C@H](NC(=O)c3cc(C4CC4)on3)C[C@@H]2C)CC1)c1ccccc1", "pIC50": 6.62}

// next item, pIC50 requested
IN: Given the entry CC(C)N1CCC(CS(=O)(=O)N2[C@@H]3CC[C@H]2C[C@@H](NC(=O)c2cc(C4CC4)on2)C3)CC1 , what pIC50 was observed with SMYD3 (Homo sapiens (Human))?
OUT: 7.41

====

# target_entity: UniProtKB Q9H7B4
# assay_info: SMYD3 biochemical assay (SPA, 3H-SAM methylation of MEKK2 protein substrate)
# setup_conditions: read-out: SMYD3 Biochem IC50 (μM)*
# Source text: S-adenosylmethionine (SAM), S-adenosylhomocysteine (SAH), Tris, Tween20, dimethylsulfoxide (DMSO), bovine skin gelatin (BSG), and Tris(2-carboxyethyl)phosphine hydrochloride solution (TCEP) were purchased from Sigma-Aldrich at the highest level of purity possible. ^3H-SAM was purchase from American Radiolabeled Chemicals with a specific activity of 80 Ci/mmol. 384-well opaque white OptiPlates and SPA beads (Perkin Elmer, catalog # RPNQ0013) were purchased from PerkinElmer. […]
parameter_measured: log10 IC50 (log10 of the value in µM)
Plainly stated, the numbers are log10 of IC50 given in µM.

Look over these answered cases.
{"molecule": "C[C@H]1CC(NC(=O)c2cc(C3CC3)on2)CCN1C(=O)CC1(C)CCNCC1 (stereo partly shown)", "reported_measurement": -0.33}
{"molecule": "COCCCS(=O)(=O)N1CC[C@H](NC(=O)c2cc(C3CC3)on2)C[C@@H]1C", "reported_measurement": 0.27}
{"molecule": "CC1(NC(=O)c2cc(C3CC3)on2)CCN(S(=O)(=O)CCCN)CC1", "reported_measurement": -0.64}

// next item, log10 IC50 requested
IN: Please report the recorded log10 IC50 for C[C@@H]1CN(C(=O)[C@@H](N)Cc2ccc(O)cc2)CCC1NC(=O)c1cc(C2CC2)on1 (stereo partly shown) .
OUT: 0.23

====

# target_entity: SMYD3 (Homo sapiens (Human), UniProt Q9H7B4)
# assay_info: SMYD3 biochemical assay (SPA, 3H-SAM methylation of MEKK2 protein substrate)
# setup_conditions: read-out: SMYD3 Biochem IC50 (μM)*
parameter_measured: IC50 (µM)
Give a bare numeral; the unit µM is implied.

Look over these answered cases.
{"molecule": "O=C1Cc2cc(S(=O)(=O)N3[C@@H]4CC[C@H]3C[C@@H](NC(=O)c3cc(C5CC5)on3)C4)ccc2N1", "IC50 (µM)": 4.19}
{"molecule": "C[C@H]1CC(NC(=O)c2cc(C3CC3)on2)CCN1C(=O)C1(F)CCNCC1 (stereo partly shown)", "IC50 (µM)": 2.6}
{"molecule": "N[C@H]1CC[C@H](C(=O)N2CC[C@@H](NC(=O)c3cc(C4CC4)on3)C[C@H]2Cc2ccccc2)CC1", "IC50 (µM)": 1.18}
{"molecule": "CCCCS(=O)(=O)N1CC[C@@H](NC(=O)c2cc(C3CC3)on2)C[C@@H]1C", "IC50 (µM)": 8.02}
{"molecule": "C[C@H](N)CC(=O)NC[C@@H](Cc1ccc(O)c(I)c1)C(=O)N1CCC(NC(=O)c2cc(C3CC3)on2)CC1", "IC50 (µM)": 4.11}

// next item, IC50 requested
IN: Please report the recorded IC50 for C[C@@H]1CC(NC(=O)c2cc(C3CC3)on2)CCN1C(=O)C1CC12CCNCC2 (stereo partly shown) .
OUT: 0.759

====

# target_entity: SMYD3 (Homo sapiens (Human))
# assay_info: SMYD3 biochemical assay (SPA, 3H-SAM methylation of MEKK2 protein substrate)
# setup_conditions: average of n = 1 to n = 50; read-out: SMYD3 Biochem IC50
parameter_measured: log10 of IC50 (log10 of the value in µM)
Plainly stated, the numbers are log10 of IC50 given in µM.

Look over these answered cases.
{"compound": "CN(CCc1ccccc1)CCS(=O)(=O)N1[C@@H]2CC[C@H]1C[C@@H](NC(=O)c1cc(C3CC3)on1)C2 [compound 748]", "parameter_measured": "log10 of IC50", "reported_measurement": -0.23}
{"compound": "CN(C1CCNCC1)S(=O)(=O)N1[C@@H]2CC[C@H]1C[C@H](NC(=O)c1cc(C3CC3)on1)C2 [compound 724]", "parameter_measured": "log10 of IC50", "reported_measurement": -0.48}
{"compound": "C[C@H]1C[C@@H](NC(=O)c2cc(C3CC3)on2)CCN1S(=O)(=O)NCCN [compound 650]", "parameter_measured": "log10 of IC50", "reported_measurement": -1.31}
{"compound": "O=C(N[C@H]1C[C@H]2CC[C@@H](C1)N2S(=O)(=O)N1CC2COCC(C1)N2)c1cc(C2CC2)on1 [compound 758]", "parameter_measured": "log10 of IC50", "reported_measurement": -0.14}
{"compound": "C[C@@H]1CNCCN1S(=O)(=O)N1CC[C@H](NC(=O)c2cc(C3CC3)on2)C[C@@H]1C [compound 666]", "parameter_measured": "log10 of IC50", "reported_measurement": -1.04}
{"compound": "C[C@H](N)c1ccc(C(=O)N2CC[C@@H](NC(=O)c3cc(C4CC4)on3)C[C@H]2C)cc1 [compound 679]", "parameter_measured": "log10 of IC50", "reported_measurement": -0.95}
{"compound": "CC1CN(S(=O)(=O)N2[C@@H]3CC[C@H]2C[C@@H](NC(=O)c2cc(C4CC4)on2)C3)CCN1C (stereo partly drawn) [compound 660]", "parameter_measured": "log10 of IC50", "reported_measurement": -1.18}
{"compound": "O=C(N[C@@H]1C[C@H]2CC[C@@H](C1)N2S(=O)(=O)CC1CCCNC1)c1cc(C2CC2)on1 (stereo partly drawn) [compound 721]", "parameter_measured": "log10 of IC50", "reported_measurement": -0.49}

IN: Please report the recorded log10 of IC50 for C[C@H]1C[C@@H](NC(=O)c2cc(C3CC3)on2)CCN1S(=O)(=O)N1CCNCC1Cc1ccccc1 (stereo partly drawn) [compound 737] .
OUT: -0.33
